Value source: paper PMC3460915

# TEST SYSTEM: GST-AGR2 (on GSH-Sepharose beads) (UniProt O95994 21-175)
# Sequence (O95994 21-175): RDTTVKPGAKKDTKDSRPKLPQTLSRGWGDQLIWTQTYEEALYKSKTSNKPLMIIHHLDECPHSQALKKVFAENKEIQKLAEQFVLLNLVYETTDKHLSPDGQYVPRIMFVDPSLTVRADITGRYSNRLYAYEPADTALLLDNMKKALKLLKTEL
# TEST SUMMARY: flow cytometry bead binding; 1x PBS (137 mM NaCl, 2.7 mM KCl, 10 mM Na2HPO4, 2.0 mM KH2PO4), pH 7.4, 37 C, 45 min, 200 uL; K+ varied in Fig 4
# SETTINGS: protein: recombinant; (pGEX-GST-AGR2); label: FAM
I'd be grateful if you could share measured Kd for these entries.
Numbers only, in nM.

{"columns": ["BINDER", "VALUE UNIT", "Kd"],
 "data": [
  ["C14A (ssDNA) DNA: TCTCGGACGCGTGTGGTCGGGGGGGCGGGGGTTGGGTGGTGGCTTCATTTTGTTTCACGTCGTCCTCGCTGCCTGGCCCTAGAGTG", "nM", 20.9]
]}

For each of the items listed, what is its Kd?
1. C14D (ssDNA) DNA: TCTCGGACGCGTGTGGTCGGTGCATTCTTCTGTTCTTTTAGTGTTTTGTGTTGTATGTTCTTATCCTCGCTGCCTGGCCCTAGAGTG
2. C14B (ssDNA) DNA: TCTCGGACGCGTGTGGTCGGGTGGGAGTTGTGGGGGGGGGTGGGAGGGTTCTTTGTTTGATCTTTCTCGCTGCCTGGCCCTAGAGTG
3. C14B0 (ssDNA) DNA: CGGGTGGGAGTTGTGGGGGGGGGTGGGAGGGTTCTTTGTTTGATCTTTCTCGCTGCCTGGCCCTAGAGTG
4. C14C (ssDNA) DNA: TCTCGGACGCGTGTGGTCGGCGTTGGGTGGGGGTGGCGGGGGTAGGGTGGTAGGTCGCTAAAATGCTCGCTGCCTGGCCCTAGAGTG

output:
1. 48.4
2. 13.1
3. 8.5
4. 44.6
